# Read-out: Bcl-2 (BID) gene, BID (gene 637)
# test details: LTEA_HepaRG_BID: Life Technologies and Expression Analysis (LTEA) Assay for Bcl-2 (BID) gene using HepaRG (AID 2283476)
# test parameters: mRNA level, 48 h; actives raise or lower the signal
The source made the active and inactive calls. Rule for the calls: active = hit-call score of the fitted dose curve at least 0.9, where 1 is the maximum; inactive = score below 0.9.
Write down the outcome that applies. Available outcomes: active, inactive

// param item: COC(=O)c1ccccc1N ; yields the recorded call
inactive

// param item: ClC1=C(Cl)[C@]2(Cl)[C@H]3[C@H]([C@@H]4C=C[C@H]3C4)[C@@]1(Cl)C2(Cl)Cl ; yields the recorded call
inactive

// param item: CCOC(=O)[C@]1(c2ccccc2)Oc2ccccc2[C@@H]1N ; yields the recorded call
inactive

// param item: Oc1ccccc1Cl ; yields the recorded call
inactive

// param item: c1ccc(N=Nc2ccccc2)cc1 ; yields the recorded call
inactive

// param item: C1=Cc2cccc3cccc1c23 ; yields the recorded call
inactive

// param item: Nc1ccc(N=Nc2ccccc2)cc1 ; yields the recorded call
active

// param item: [As]#[In] ; yields the recorded call
inactive

// param item: CCCCCOC(=O)c1ccccc1C(=O)OCCCCC ; yields the recorded call
inactive

// param item: OCCCl ; yields the recorded call
inactive

// param item: CC(C)COC(=O)c1ccccc1C(=O)OCC(C)C ; yields the recorded call
inactive

// param item: CCCCCCCCOC(=O)c1ccc(C(=O)OCCCCCCCC)c(C(=O)OCCCCCCCC)c1 ; yields the recorded call
inactive

// param item: O=C1CCCO1 ; yields the recorded call
inactive

// param item: [Cl-].[Cl-].[Hg+2] ; yields the recorded call
inactive

###

# Read-out: solute carrier (SLC10A1), SLC10A1 (gene 6554)
# test details: LTEA_HepaRG_SLC10A1: Life Technologies and Expression Analysis (LTEA) Assay for solute carrier (SLC10A1) using HepaRG (AID 2283657)
# test parameters: mRNA level, 48 h; actives raise or lower the signal
Activity calls are given as the source filed them. The calls were made as follows: active = hit-call score of the fitted dose curve at least 0.9, where 1 is the maximum; inactive = score below 0.9.
quantity kind: outcome

Completed entries (count: 4):
[[record]]
molecule = "O=[N+]([O-])C(Br)(CO)CO"
quantity_kind = "outcome"
measurement = "inactive"

[[record]]
molecule = "CC(C)COC(=O)c1ccccc1C(=O)OCC(C)C"
quantity_kind = "outcome"
measurement = "inactive"

[[record]]
molecule = "C1=Cc2cccc3cccc1c23"
quantity_kind = "outcome"
measurement = "inactive"

[[record]]
molecule = "ClC1=C(Cl)C2(Cl)C3C(Cl)C=CC3C1(Cl)C2(Cl)Cl (stereo not given)"
quantity_kind = "outcome"
measurement = "inactive"


Next item in the queue.
If you can, please state the reported outcome value of CCN(CC)CCO .
inactive

###

# Read-out: CD40, CD40 (gene 958)
# test details: BSK_SAg_CD40: BioMAP Diversity Plus: SAg Assay for CD40 Biomarker Activity (AID 2283088)
# test parameters: primary human HUVEC with PBMC; actives raise or lower the signal
Calls of active or inactive are those of the source. How the source made its calls: active means hit-call score of the fitted dose curve at least 0.9, where 1 is the maximum; inactive means score below 0.9.
Write down the outcome that applies. Available outcomes: active, inactive

Illustrative cases are given below, each with its answer.
[[record]]
compound = "CCCCCOC(=O)c1ccccc1C(=O)OCCCCC"
class = "active"

[[record]]
compound = "CCN(CC)CCO"
class = "inactive"

[[record]]
compound = "OCCCBr"
class = "inactive"

[[record]]
compound = "CC(O)CCO (stereo unspecified)"
class = "inactive"


// param item: c1ccc(C2CO2)cc1 (stereo unspecified) ; yields the recorded call
inactive

// param item: C[N+](C)(C)CC1CO1 (stereo unspecified) ; yields the recorded call
inactive

// param item: CC(C)COC(=O)c1ccccc1C(=O)OCC(C)C ; yields the recorded call
inactive

// param item: Clc1ccc(Cl)c(Cl)c1 ; yields the recorded call
inactive

// param item: c1ccc2c(c1)oc1ccccc12 ; yields the recorded call
inactive

// param item: Nc1ccc(Oc2ccc(N)cc2)cc1 ; yields the recorded call
inactive

// param item: Cc1cc(N=Nc2ccccc2C)ccc1N ; yields the recorded call
active

// param item: Clc1ccc(C(c2ccc(Cl)cc2)C(Cl)(Cl)Cl)cc1 ; yields the recorded call
active

// param item: Nc1ccc(N=Nc2ccccc2)cc1 ; yields the recorded call
inactive

// param item: OCCOCCO ; yields the recorded call
inactive

// param item: CCCCCCCCCCCCCN1CC(C)OC(C)C1 (stereo unspecified) ; yields the recorded call
inactive

// param item: CCOC(=O)[C@]1(c2ccccc2)Oc2ccccc2[C@@H]1N ; yields the recorded call
inactive
